target: human Matrix Metalloproteinase-9 (MMP9), MMP9 (gene 4318) (UniProt P14780); assay: NVS_ENZ_hMMP9: NovaScreen (NVS) Enzymatic Assay for human Matrix Metalloproteinase-9 (MMP9) (AID 2283190);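 also: cell-free recombinant MMP9 protease activity read by fluorescent substrate signal; active means inhibition seen as loss of fluorescence signal versus DMSO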
Sequence (P14780 whole entry, looked up): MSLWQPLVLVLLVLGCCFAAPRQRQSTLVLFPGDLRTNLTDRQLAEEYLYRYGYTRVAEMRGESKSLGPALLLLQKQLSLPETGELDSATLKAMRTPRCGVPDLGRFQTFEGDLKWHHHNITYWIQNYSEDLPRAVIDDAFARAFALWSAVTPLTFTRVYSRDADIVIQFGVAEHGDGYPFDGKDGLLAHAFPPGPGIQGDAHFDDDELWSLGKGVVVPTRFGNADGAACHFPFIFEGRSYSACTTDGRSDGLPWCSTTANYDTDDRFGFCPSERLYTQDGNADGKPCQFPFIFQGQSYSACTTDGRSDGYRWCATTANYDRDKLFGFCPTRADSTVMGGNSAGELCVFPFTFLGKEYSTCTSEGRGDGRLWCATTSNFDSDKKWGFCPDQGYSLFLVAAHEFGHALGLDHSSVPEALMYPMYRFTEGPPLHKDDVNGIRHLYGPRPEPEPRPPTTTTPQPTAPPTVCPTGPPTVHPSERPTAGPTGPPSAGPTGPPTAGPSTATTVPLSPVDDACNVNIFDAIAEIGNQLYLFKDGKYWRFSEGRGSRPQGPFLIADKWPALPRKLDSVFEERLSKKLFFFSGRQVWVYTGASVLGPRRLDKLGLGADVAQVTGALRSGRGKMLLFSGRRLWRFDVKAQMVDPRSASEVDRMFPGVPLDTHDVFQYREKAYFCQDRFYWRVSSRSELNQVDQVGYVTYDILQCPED
Records with an inconclusive call do not appear. The source made the active and inactive calls. The calls were made as follows: active = hit-call score of the fitted dose curve at least 0.9, where 1 is the maximum; inconclusive = response in the unintended direction; inactive = score below 0.9.
Measured endpoint: outcome

In [3]: df
Out[3]:
                            compound_smiles  test_result
0  O=C(O)C(F)(F)C(F)(F)C(F)(F)C(F)(F)C(F)(F)C(F)(F)C(F)(F)F     inactive
1                    Oc1ccc(Cl)cc1Cc1ccccc1     inactive
2                          CN1CSC(=S)N(C)C1     inactive
3              Oc1cc(Cl)ccc1Oc1ccc(Cl)cc1Cl     inactive

====

read-out: Interleukin-8 (IL8), CXCL8 (gene 3576); assay: BSK_LPS_IL8: BioMAP Diversity Plus: LPS Assay for Interleukin-8 (IL8) Biomarker Activity (AID 2283078); conditions: primary human HUVEC with PBMC; actives raise or lower the signal
Active and inactive are the calls of the source. Rule for the calls: active = hit-call score of the fitted dose curve at least 0.9, where 1 is the maximum; inactive = score below 0.9.
# valid calls are label 1 (active), label 0 (inactive); nothing else

Known results for compounds:
In [3]: df
Out[3]:
                       compound  assigned_category
0      O=C(O)CCCOc1ccc(Cl)cc1Cl            label 0
1  Oc1cc(Cl)ccc1Oc1ccc(Cl)cc1Cl            label 1

Query string: Record request — test call for COC(=O)c1ccccc1S(=O)(=O)NC(=O)N(C)c1nc(C)nc(OC)n1
Result string: label 0

Query string: Record request — test call for CC(C)OC(=O)Nc1cccc(Cl)c1
Result string: label 0

Query string: Record request — test call for CN1CSC(=S)N(C)C1
Result string: label 1

Query string: Record request — test call for CC(C)(C)C(O)C(Oc1ccc(Cl)cc1)n1cncn1 (stereo not given)
Result string: label 0

Query string: Record request — test call for COC(=O)c1ccccc1S(=O)(=O)NC(=O)Nc1nc(C)nc(OC)n1
Result string: label 0

Query string: Record request — test call for COc1cc(OC)nc(NC(=O)NS(=O)(=O)c2cc(NC=O)ccc2C(=O)N(C)C)n1
Result string: label 0

Query string: Record request — test call for COP(=S)(OC)Oc1ccc(SC)c(C)c1
Result string: label 0

Query string: Record request — test call for CNC(=O)/C=C(\C)OP(=O)(OC)OC
Result string: label 0

Query string: Record request — test call for CC(C)N(C(=O)COc1nnc(C(F)(F)F)s1)c1ccc(F)cc1
Result string: label 0

Query string: Record request — test call for Cc1[nH]c(=O)n(C(C)(C)C)c(=O)c1Cl
Result string: label 0

Query string: Record request — test call for CC1(C)C(C=C(Cl)Cl)C1C(=O)OC(C#N)c1ccc(F)c(Oc2ccccc2)c1 (stereo not given)
Result string: label 1

====

read-out: Peroxisomal acyl-coenzyme A oxidase 1 (ACOX1) gene, ACOX1 (gene 51); experiment: LTEA_HepaRG_ACOX1: Life Technologies and Expression Analysis (LTEA) Assay for Peroxisomal acyl-coenzyme A oxidase 1 (ACOX1) gene using HepaRG (AID 2283467); conditions: mRNA level, 48 h; actives raise or lower the signal
Activity calls are given as the source filed them. How the source made its calls: active means hit-call score of the fitted dose curve at least 0.9, where 1 is the maximum; inactive means score below 0.9.
Measured endpoint: AC50

Some entries whose results are on file:
                                   compound  measured_endpoint       test_result
0    O=[N+]([O-])c1c(Cl)c(Cl)c(Cl)c(Cl)c1Cl               AC50          inactive
1  CC(C)N(C(=O)COc1nnc(C(F)(F)F)s1)c1ccc(F)cc1               AC50  19.4 µM (active)
2  CCc1ccc(C(=O)NN(C(=O)c2cc(C)cc(C)c2)C(C)(C)C)cc1               AC50          inactive
3  ClC1C(Cl)C(Cl)C(Cl)C(Cl)C1Cl (configuration not stated)               AC50          inactive

I would be grateful if you could provide AC50 for each of the following entries.
1. CC1(c2ccc(Oc3ccccc3)cc2)OC(=O)N(Nc2ccccc2)C1=O (configuration not stated)
2. O=C(O)COc1ccc(Cl)cc1Cl
3. O=C1c2ccccc2C(=O)N1SC(Cl)(Cl)Cl

Result string:
1. 26.7 µM (active)
2. inactive
3. inactive
